# SYSTEM NAME: hAT1R (Homo sapiens, UniProt P30556)
# Sequence (P30556 1-359): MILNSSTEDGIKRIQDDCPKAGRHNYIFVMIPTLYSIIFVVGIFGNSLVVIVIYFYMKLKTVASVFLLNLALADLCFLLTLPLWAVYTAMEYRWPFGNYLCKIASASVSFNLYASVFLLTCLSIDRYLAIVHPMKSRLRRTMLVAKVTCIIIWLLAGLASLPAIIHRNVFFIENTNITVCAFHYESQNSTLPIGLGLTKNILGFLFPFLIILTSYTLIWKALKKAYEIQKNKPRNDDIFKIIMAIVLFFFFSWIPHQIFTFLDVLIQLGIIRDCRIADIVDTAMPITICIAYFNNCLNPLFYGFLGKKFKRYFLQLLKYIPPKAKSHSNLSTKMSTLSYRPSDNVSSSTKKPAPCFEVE
# METHOD SUMMARY: BRET β-arrestin2 biosensor assay, higher receptor expression (hAT1R 5 ng/well), HEK293 cells
# Assay type: cell-based
BRET β-Arrestin2 High AT1R Expression Ymax (%) strictly under 80% means Yes; at 80% or over means No.

Previously resolved entries follow.
# COMPOUND, SYSTEM NAME, CLASS
measured = [
    ("CCc1nc2c(C)cc(C)nc2n1Cc1ccc(-c2cc(-n3cc(C4CCCC4)nn3)ccc2-c2nnn[nH]2)cc1", "hAT1R (Homo sapiens, UniProt P30556)", "Yes"),
    ("CCCCC1=NC2(CCCC2)C(=O)N1Cc1ccc(-c2cc(-c3cccc(F)c3)ccc2-c2nn[nH]n2)cc1", "hAT1R (Homo sapiens, UniProt P30556)", "No"),
    ("CCc1nc2c(C)cc(C)nc2n1Cc1ccc(-c2cc(-c3cnn(C)c3)ccc2-c2nn[nH]n2)cc1", "hAT1R (Homo sapiens, UniProt P30556)", "Yes"),
    ("CCCCc1nc(Cl)c(CO)n1Cc1ccc(-c2cc(-c3ccccc3)ccc2-c2nnn[nH]2)cc1", "hAT1R (Homo sapiens, UniProt P30556)", "Yes"),
    ("CCc1nc2c(C)cc(C)nc2n1Cc1ccc(-c2cc(Oc3cccnc3)ccc2-c2noc(=O)[nH]2)cc1", "hAT1R (Homo sapiens, UniProt P30556)", "No"),
    ("CCc1nc2c(C)cc(C)nc2n1Cc1ccc(-c2cc(-c3cncn3C)ccc2-c2nn[nH]n2)cc1", "hAT1R (Homo sapiens, UniProt P30556)", "Yes"),
]

# input Given `CCCCC1=NC2(CCCC2)C(=O)N1Cc1ccc(-c2cc(-c3cccc(F)c3F)ccc2-c2nn[nH]n2)cc1` , is recorded BRET β-Arrestin2 High AT1R Expression Ymax (%) strictly lower than 80%?
# output No

# input Given `CCCCc1ncc(C(=O)NC(C)(C)COC)n1Cc1ccc(-c2cc(-c3ccccc3)ccc2-c2nn[nH]n2)cc1` , is recorded BRET β-Arrestin2 High AT1R Expression Ymax (%) strictly lower than 80%?
# output Yes

# input Given `CCCCC1=NC2(CCCC2)C(=O)N1Cc1ccc(-c2cc(-n3ccc4ccccc43)ccc2-c2nn[nH]n2)cc1` , is recorded BRET β-Arrestin2 High AT1R Expression Ymax (%) strictly lower than 80%?
# output Yes

# input Given `CCOc1nc2cccc(C(=O)O)c2n1Cc1ccc(-c2cc(-c3ccccc3)ccc2C(=O)O)cc1` , is recorded BRET β-Arrestin2 High AT1R Expression Ymax (%) strictly lower than 80%?
# output No

# input Given `CCCCc1ncc(C(=O)NC)n1Cc1ccc(-c2cc(-c3ccccc3)ccc2-c2nn[nH]n2)cc1` , is recorded BRET β-Arrestin2 High AT1R Expression Ymax (%) strictly lower than 80%?
# output Yes
